Source listed as PubChem BioAssay (NCI).

System: NCI-H226 lung
Experiment: NCI-60 one-dose screen, 48 h (100 = growth as untreated, 0 = no growth, -100 = all killed)
Measurement Parameters: 10 µM unless noted
Compounds without any hit were thinned out: in the full panel of roughly 83,000, 20% have a hit.
Response field label: string, one of Satisfied (growth strictly below 70%) or Not satisfied.

Compound: COc1ccc([C@@H]2c3[nH]c4ccccc4c3C[C@H]3C(=O)N(C4CCN(CC5CCCCC5)CC4)CC(=O)N23)c(OC)c1
Class Assignment: Not satisfied
--
Compound: COc1ccc(NC(=O)CSc2nnc(-c3ccc4nc(-c5ccccc5)[nH]c4c3)o2)cc1
Class Assignment: Not satisfied
--
Compound: COc1ccc(-c2nc3ccc(-c4nnc(SCC(=O)Nc5ccc(C(=O)/C=C/c6ccc(Cl)cc6)cc5)o4)cc3[nH]2)cc1
Class Assignment: Not satisfied
--
Compound: CCNC(=O)N1CCc2cc(OC)c(OCCc3ccc(OC)cc3)cc2C1c1ccc(Cl)cc1C (stereo not drawn)
Class Assignment: Satisfied
--
Compound: N#Cc1c(-c2cccs2)cc(-c2cnccn2)nc1SCC(=O)Nc1ccc(Br)cc1
Class Assignment: Not satisfied
--
Compound: C=C(C)[C@@H]1CC[C@]2(COP(=O)(OCC)OCC)CC[C@]3(C)[C@H](CC[C@@H]4[C@@]5(C)CCCNC(C)(C)[C@@H]5CC[C@]43C)[C@@H]12
Class Assignment: Satisfied
--
Compound: COc1ccc(Oc2ccc(/C=N/NC(=O)CSc3nc4ccccc4c(=O)n3-c3ccc(Cl)cc3)cc2)cc1
Class Assignment: Not satisfied
--
Compound: CCN(CC)c1ccc2c(c1)Oc1nc(N)c(C#N)c(N)c1C2Sc1ccc(C)cc1 (stereo not drawn)
Class Assignment: Satisfied
